Molecular target: human TLR8 (Homo sapiens (Human))
Sequence (Q9NR97 27-1041): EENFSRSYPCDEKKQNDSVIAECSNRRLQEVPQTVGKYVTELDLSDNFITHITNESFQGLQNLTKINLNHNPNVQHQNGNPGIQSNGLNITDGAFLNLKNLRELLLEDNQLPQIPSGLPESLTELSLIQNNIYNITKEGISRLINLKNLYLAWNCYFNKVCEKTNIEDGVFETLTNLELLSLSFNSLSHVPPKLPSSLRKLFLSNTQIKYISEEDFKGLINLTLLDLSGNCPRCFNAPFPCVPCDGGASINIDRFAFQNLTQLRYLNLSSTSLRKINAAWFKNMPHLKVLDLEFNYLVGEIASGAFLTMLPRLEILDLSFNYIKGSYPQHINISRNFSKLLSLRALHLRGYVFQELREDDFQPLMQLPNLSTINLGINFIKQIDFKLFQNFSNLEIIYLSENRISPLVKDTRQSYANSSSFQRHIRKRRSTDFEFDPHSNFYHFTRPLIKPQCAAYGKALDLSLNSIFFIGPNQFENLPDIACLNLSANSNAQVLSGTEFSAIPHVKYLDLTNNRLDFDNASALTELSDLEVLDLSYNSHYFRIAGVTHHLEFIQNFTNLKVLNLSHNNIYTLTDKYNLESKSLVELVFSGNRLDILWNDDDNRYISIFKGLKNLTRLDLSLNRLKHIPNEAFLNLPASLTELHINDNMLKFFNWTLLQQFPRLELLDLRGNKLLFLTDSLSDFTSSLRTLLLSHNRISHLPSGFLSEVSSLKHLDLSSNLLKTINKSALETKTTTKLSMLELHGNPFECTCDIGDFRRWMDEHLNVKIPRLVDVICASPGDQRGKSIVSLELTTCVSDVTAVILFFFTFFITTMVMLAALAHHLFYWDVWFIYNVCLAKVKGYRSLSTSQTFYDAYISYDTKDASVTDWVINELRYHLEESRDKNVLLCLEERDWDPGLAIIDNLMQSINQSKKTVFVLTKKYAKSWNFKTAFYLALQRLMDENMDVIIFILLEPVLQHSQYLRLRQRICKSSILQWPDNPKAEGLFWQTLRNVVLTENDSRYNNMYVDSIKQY
Assay: TLR8 inhibition reporter assay (HEK-Blue SEAP);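 further: SEAP driven by IFN-β minimal promoter carrying NF-κB and AP-1 sites, compounds dosed 0.05 nM to 50 µM for 22 h, inhibition scaled between agonist-plus-DMSO and reference-inhibitor wells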
Settings: read-out: TLR8 IC50; HEK-Blue cells overexpressing human TLR8, R848 15.9 μM stimulation, SEAP reporter
readout_kind: IC50 (nM)
Output spec: scalar in nM, unitless text.

q: Please give the measured IC50 for this molecule: Cc1c(-c2[nH]c3ccc(N4CCN(C)CC4)nc3c2C(C)C)cn2ncnc2c1C
a: 0.28

q: Dear colleague, I am looking for the recorded IC50 of the following molecule: CC(C)c1c(-c2cn(C)c3ncccc23)[nH]c2ccc(C3CCC(NC4COC4)CC3)nc12 (centres unmarked) [Example 185]
a: 110

q: Given the entry CC(C)c1c(-c2cc(CO)c3ncnn3c2)[nH]c2ccc(N3CCC(NC4COC4)CC3)nc12 , report its measured IC50.
a: 0.95

q: Reported IC50 for CC(C)c1c(-c2cn(C)c3ncccc23)[nH]c2ccc(N3CC(NCC(=O)N(C)C)C3)nc12 [Example 37] : what is it?
a: 465

q: I am curious: what IC50 value has been reported for CC(C)c1c(-c2cc(CO)c3ncnn3c2)[nH]c2ccc(C3CCC(NCc4c[nH]nn4)CC3)nc12 (centres unmarked) [Example 218] ?
a: 20

q: Consider the molecule shown here: Cc1c(-c2[nH]c3ccc(N4CCN(C(=O)CNCCO)CC4)nc3c2C(C)C)cn2ncnc2c1C What is its recorded IC50?
a: 0.96

q: Given CC(C)c1c(-c2cn(C)c3ncccc23)[nH]c2ccc(C3CCC(NCC4(S(C)(=O)=O)CC4)CC3)nc12 (centres unmarked) [Example 238] , state its recorded IC50.
a: 0.97

q: Can you share its IC50? I mean this molecule: COc1cc(-c2[nH]c3ccc(N4CCN(CCC(N)=O)CC4)nc3c2C(C)C)cn2ncnc12
a: 1.3

---

Target: human TLR9 (Homo sapiens (Human), UniProt Q9NR96)
Sequence (Q9NR96 26-1032): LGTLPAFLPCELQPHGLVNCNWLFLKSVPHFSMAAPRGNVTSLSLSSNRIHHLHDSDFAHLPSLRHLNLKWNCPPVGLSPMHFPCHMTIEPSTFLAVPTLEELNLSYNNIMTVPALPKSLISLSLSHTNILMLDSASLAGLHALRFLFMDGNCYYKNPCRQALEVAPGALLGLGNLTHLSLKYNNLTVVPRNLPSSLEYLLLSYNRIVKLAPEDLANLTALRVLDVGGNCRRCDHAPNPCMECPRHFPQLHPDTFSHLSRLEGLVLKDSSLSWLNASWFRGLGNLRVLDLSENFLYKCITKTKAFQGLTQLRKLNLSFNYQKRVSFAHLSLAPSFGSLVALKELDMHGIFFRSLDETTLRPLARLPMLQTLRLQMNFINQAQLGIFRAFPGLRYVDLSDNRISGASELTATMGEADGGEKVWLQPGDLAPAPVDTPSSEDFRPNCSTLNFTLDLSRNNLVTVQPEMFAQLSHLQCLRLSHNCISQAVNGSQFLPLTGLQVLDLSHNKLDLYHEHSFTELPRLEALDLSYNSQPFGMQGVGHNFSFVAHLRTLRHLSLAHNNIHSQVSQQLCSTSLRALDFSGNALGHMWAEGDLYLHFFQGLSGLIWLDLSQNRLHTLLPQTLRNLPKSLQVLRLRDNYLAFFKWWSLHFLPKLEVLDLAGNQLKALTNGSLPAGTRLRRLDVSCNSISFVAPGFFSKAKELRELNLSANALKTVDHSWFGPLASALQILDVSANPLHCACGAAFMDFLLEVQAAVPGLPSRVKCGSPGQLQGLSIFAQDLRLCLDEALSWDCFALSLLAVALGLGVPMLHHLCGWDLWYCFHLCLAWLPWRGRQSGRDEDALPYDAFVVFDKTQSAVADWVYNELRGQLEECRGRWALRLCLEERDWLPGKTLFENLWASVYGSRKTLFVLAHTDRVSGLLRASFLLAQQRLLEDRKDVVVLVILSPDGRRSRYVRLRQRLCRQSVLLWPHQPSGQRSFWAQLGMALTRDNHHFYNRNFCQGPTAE
Assay: TLR9 inhibition reporter assay (HEK-Blue SEAP)
Settings: read-out: TLR9 IC50; HEK-Blue cells overexpressing human TLR9, SEAP reporter, ODN2006 5 nM
Mark each entry yes if its IC50 sits below 3 µM, and no for all others.

q: Report whether reported IC50 is lower than 3 µM (strictly) for Cc1c(-c2[nH]c3ccc(C4CCC(N(C)CC(N)=O)CC4)nc3c2C(C)C)cn2ncnc2c1C (stereo not drawn) [Example 406]
a: yes

q: # TODO verify IC50 < 3 µM strictly for this compound: CCN(CCS(C)(=O)=O)C1CCC(c2nc3c(C(C)C)c(-c4cn5ncnc5c(C)c4C)[nH]c3cc2F)CC1 (stereo not drawn) [Example 511]
a: no

q: API: query returns whether the compound falls strictly under 3 µM in IC50. Query: COc1cc(-c2[nH]c3ccc(C4CC(N(C)C(=O)CN(C)C)C4)nc3c2C(C)C)cn2ncnc12 (stereo not drawn) [Example 630]
a: yes

q: I wonder whether Cc1c(-c2[nH]c3ccc(C4CC(N(C)C(=O)CN(C)C)C4)nc3c2C(C)C)cn2ncnc2c1C (stereo not drawn) has IC50 below 3 µM. Can you tell?
a: yes

q: Please let me know if COc1cc(-c2[nH]c3cc(C)c(C(=O)N(C)CCN(C)C)nc3c2C(C)C)cn2ncnc12 shows IC50 below 3 µM.
a: no

q: Hi there! Is IC50 for Cc1c(-c2[nH]c3ccc(C4CNC4)nc3c2C(C)C)cn2ncnc2c1C below 3 µM, do you know?
a: no

q: Consider the compound Cc1c(-c2[nH]c3ccc(C4CCC(NCc5c[nH]nn5)CC4)nc3c2C(C)C)cn2ncnc2c1C (stereo not drawn) . Is its IC50 strictly less than 3 µM?
a: yes

q: Quick check: does Cc1c(-c2[nH]c3ccc(C4CCC(NCCS(N)(=O)=O)CC4)nc3c2C(C)C)cn2ncnc2c1C (stereo not drawn) [Example 446] have IC50 under 3 µM?
a: yes

q: Say whether its IC50 is strictly beneath 3 µM. Entry: Cc1c(-c2[nH]c3ccc(C4CCC(NC5(CO)COC5)CC4)nc3c2C(C)C)cn2ncnc2c1C (stereo not drawn) [Example 484]
a: no

q: Check if IC50 falls below 3 µM for Cc1cc(-c2[nH]c3ccc(-c4cnn(C5CCNCC5)c4)nc3c2C(C)C)cn2ncnc12 .
a: yes

q: Please indicate whether the reported IC50 of Cc1c(-c2[nH]c3ccc(CCC4CNC4)nc3c2C(C)C)cn2ncnc2c1C is strictly below 3 µM.
a: yes

q: hey, is IC50 for Cc1c(-c2[nH]c3ccc(C4CN(C(C)C)C4)nc3c2C(C)C)cn2ncnc2c1C lower than 3 µM or not?
a: yes

q: Strictly below 3 µM: is that where IC50 of Cc1c(-c2[nH]c3ccc(C4CCC(N(C)C5COC5)CC4)nc3c2C(C)C)cn2ncnc2c1C (single isomer, unassigned) [Example 430] sits?
a: no

q: Record Cc1c(-c2[nH]c3ccc(C4CN(C(=O)CN(C)C)C4)nc3c2C(C)C)cn2ncnc2c1C : is its IC50 strictly below 3 µM?
a: no

q: Is IC50 of Cc1c(-c2[nH]c3ccc(N4[C@@H](C)CN(CCC(N)=O)C[C@@H]4C)nc3c2C(C)C)cn2ncnc2c1C strictly below 3 µM?
a: no

q: In plain terms, does COCCN(C)C(=O)CNC1CCC(c2ccc3[nH]c(-c4cn5ncnc5c(C)c4C)c(C(C)C)c3n2)CC1 (stereo not drawn) come in under 3 µM for IC50?
a: no

q: Dear colleague, could you confirm whether IC50 of COCCN(C1CCC(c2ccc3[nH]c(-c4cn5ncnc5c(C)c4C)c(C(C)C)c3n2)CC1)C1(CO)COC1 (stereo not drawn) [Example 500] falls below 3 µM? Thanks.
a: no

q: Here's an entry: Cc1c(-c2[nH]c3ccc(C4CCC(N(CC#N)CC5(S(C)(=O)=O)CC5)CC4)nc3c2C(C)C)cn2ncnc2c1C (stereo not drawn) [Example 475] . Is its IC50 below 3 µM?
a: no

q: Determine whether this compound shows IC50 lower than 3 µM (ties excluded): Cc1c(-c2[nH]c3ccc(C4CCC(NC5CCOCC5)CC4)nc3c2C(C)C)cn2ncnc2c1C (stereo not drawn) [Example 451]
a: yes

q: For CNC(=O)CNC1CCC(c2ccc3[nH]c(-c4cc(OC)c5ncnn5c4)c(C(C)C)c3n2)C1 (stereo not drawn) [Example 719] , is the recorded IC50 below the cut-off of 3 µM?
a: yes

q: Dear reviewer, please state whether Cc1c(-c2[nH]c3ccc(C4CCC(N(C)Cc5ncccn5)CC4)nc3c2C(C)C)cn2ncnc2c1C (stereo not drawn) [Example 418] has IC50 strictly beneath 3 µM.
a: yes

q: is_below(IC50, 3 µM) for Cc1c(-c2[nH]c3ccc(N4C[C@H](C)N(C(=O)CN(C)C)C[C@@H]4C)nc3c2C(C)C)cn2ncnc2c1C ?
a: no

q: Strictly below 3 µM in IC50? Cc1cc(-c2[nH]c3ccc(C4CNCCO4)nc3c2C(C)C)cn(C)c1=O (stereo not drawn) [Example 679]
a: no

q: Please check: IC50 for Cc1c(-c2[nH]c3ccc(C4CCC(N5CC(C#N)C5)CC4)nc3c2C(C)C)cn2ncnc2c1C (stereo not drawn) [Example 436] , strictly under 3 µM or not?
a: no
